procedure details: Hemolytic activity in red blood cells (unknown origin)
Assay type: toxicity, cell-based, Erythrocyte
Flag rule - HC50 less than 60 µg/mL flags TRUE; the remaining entries get FALSE.

compound smiles: O=C(/C=C/c1ccccc1)c1ccc(OCCC[n+]2ccc(NC(=O)c3ccc4ccccc4c3)cc2)cc1.[Br-]
class: FALSE

compound smiles: CCCCCCCCCC[N+](C)(C)CCCOc1ccc(C(=O)/C=C/c2ccccc2)cc1.[Br-]
class: FALSE

compound smiles: CCCCCCNC(=O)C[N+](C)(C)CCCOc1ccc(/C=C/C(=O)c2ccc(OCCC[N+](C)(C)CC(=O)NCCCCCC)cc2)cc1.[Br-].[Br-]
class: FALSE

compound smiles: CCCCCCCCCCOc1cc[n+](CCCOc2ccc(/C=C/C(=O)c3ccc(OCCC[n+]4ccc(OCCCCCCCCCC)cc4)cc3)cc2)cc1.[Br-].[Br-]
class: FALSE

compound smiles: CCCCCCCCCC[N+](C)(C)CCCCCCCOc1ccc(C(=O)/C=C/c2ccccc2)cc1.[Br-]
class: TRUE

compound smiles: CCCCCCCCCCCCCC[N+](C)(C)CCCOc1ccc(C(=O)/C=C/c2ccccc2)cc1.[Br-]
class: TRUE

compound smiles: CCCCCCOc1cc[n+](CCCOc2ccc(/C=C/C(=O)c3ccc(OCCC[n+]4ccc(OCCCCCC)cc4)cc3)cc2)cc1.[Br-].[Br-]
class: FALSE

compound smiles: CCCCCC(=O)Nc1cc[n+](CCCOc2ccc(C(=O)/C=C/c3ccccc3)cc2)cc1.[Br-]
class: FALSE

compound smiles: CCCCCC[N+](C)(C)CCCOc1ccc(/C=C/C(=O)c2ccc(OCCC[N+](C)(C)CCCCCC)cc2)cc1.[Br-].[Br-]
class: FALSE

compound smiles: O=C(CC12CC3CC(CC(C3)C1)C2)Nc1cc[n+](CCCOc2ccc(C(=O)/C=C/c3ccccc3)cc2)cc1.[Br-]
class: FALSE

compound smiles: CCCCCCCCCC(=O)Nc1cc[n+](CCCOc2ccc(C(=O)/C=C/c3ccccc3)cc2)cc1.[Br-]
class: FALSE

compound smiles: CCCCCCCCCCCC[N+](C)(C)CCCOc1ccc(/C=C/C(=O)c2ccc(OCCC[N+](C)(C)CCCCCCCCCCCC)cc2)cc1.[Br-].[Br-]
class: TRUE

compound smiles: CCCCCCCCCCCCCC[N+](C)(C)CCCOc1ccc(/C=C/C(=O)c2ccc(OCCC[N+](C)(C)CCCCCCCCCCCCCC)cc2)cc1.[Br-].[Br-]
class: TRUE

compound smiles: CCCC[N+](C)(C)CCCCCCCOc1ccc(C(=O)/C=C/c2ccccc2)cc1.[Br-]
class: FALSE
